Biological target: Cdc7/ASK (Homo sapiens)
Assay: Cdc7 biochemical assay Method 1: 384 well ELISA, MCM2 whole protein substrate, Phospho MCM2 (S53) antibody
Parameters: purchased
Settings: ATP 2 μM, 90 minutes, read-out: Biochemical method 1 (pIC50) (converted)
Yes if IC50 is below 40 nM. No if not; exact matches included in No.

- Compound: "Cc1ncsc1-c1nc(N2CCNC(C(F)(F)F)C2)c(Cl)c(=O)[nH]1 (stereo not drawn) [Compound 31]"
  Class assignment: "Yes"
- Compound: "Cc1cc(C(=O)N2CCC(c3nc(-c4scnc4C)[nH]c(=O)c3Cl)CC2)[nH]n1 [Compound 22]"
  Class assignment: "Yes"
- Compound: "Cc1cc(C(=O)N2CCC(c3nc(-c4scnc4C)[nH]c(=O)c3Cl)CC2)n(C)n1 [Compound 24]"
  Class assignment: "Yes"
- Compound: "Cc1ncsc1-c1nc(C2CCN(CC(C)C)CC2)c(Cl)c(=O)[nH]1 [Compound 27]"
  Class assignment: "No"
- Compound: "CCc1ncsc1-c1nc(C2CCOCC2)c(Cl)c(=O)[nH]1 [Compound 13]"
  Class assignment: "Yes"
- Compound: "Cc1ncsc1-c1nc(C2CCNCC2)c(Cl)c(=O)[nH]1 [Compound 2]"
  Class assignment: "Yes"
- Compound: "Cc1nnsc1-c1nc(C2CCOCC2)c(Cl)c(=O)[nH]1 [Compound 11]"
  Class assignment: "No"
- Compound: "Cc1cc(C(=O)N2CCC(c3nc(-c4scnc4C)[nH]c(=O)c3Cl)CC2)no1 [Compound 25]"
  Class assignment: "Yes"

---

Molecular target: Cdc7/ASK (Homo sapiens, UniProt O00311)
Sequence (O00311 whole entry): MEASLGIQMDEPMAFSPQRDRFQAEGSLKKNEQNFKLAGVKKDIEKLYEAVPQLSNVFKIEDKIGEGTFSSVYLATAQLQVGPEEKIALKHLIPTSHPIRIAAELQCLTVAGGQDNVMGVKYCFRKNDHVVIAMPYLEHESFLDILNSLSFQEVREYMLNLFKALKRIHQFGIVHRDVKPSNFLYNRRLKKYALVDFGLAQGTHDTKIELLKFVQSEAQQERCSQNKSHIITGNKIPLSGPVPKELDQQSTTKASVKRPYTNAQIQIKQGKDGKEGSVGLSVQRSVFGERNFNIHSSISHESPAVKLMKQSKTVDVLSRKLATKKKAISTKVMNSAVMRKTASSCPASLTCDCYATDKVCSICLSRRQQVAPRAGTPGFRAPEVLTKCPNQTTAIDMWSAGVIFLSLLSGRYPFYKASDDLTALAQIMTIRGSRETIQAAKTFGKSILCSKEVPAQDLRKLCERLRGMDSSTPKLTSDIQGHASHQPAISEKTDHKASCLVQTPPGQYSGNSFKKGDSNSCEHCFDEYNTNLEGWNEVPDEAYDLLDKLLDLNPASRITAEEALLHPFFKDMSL
Sequence (Q9UBU7 whole entry partner): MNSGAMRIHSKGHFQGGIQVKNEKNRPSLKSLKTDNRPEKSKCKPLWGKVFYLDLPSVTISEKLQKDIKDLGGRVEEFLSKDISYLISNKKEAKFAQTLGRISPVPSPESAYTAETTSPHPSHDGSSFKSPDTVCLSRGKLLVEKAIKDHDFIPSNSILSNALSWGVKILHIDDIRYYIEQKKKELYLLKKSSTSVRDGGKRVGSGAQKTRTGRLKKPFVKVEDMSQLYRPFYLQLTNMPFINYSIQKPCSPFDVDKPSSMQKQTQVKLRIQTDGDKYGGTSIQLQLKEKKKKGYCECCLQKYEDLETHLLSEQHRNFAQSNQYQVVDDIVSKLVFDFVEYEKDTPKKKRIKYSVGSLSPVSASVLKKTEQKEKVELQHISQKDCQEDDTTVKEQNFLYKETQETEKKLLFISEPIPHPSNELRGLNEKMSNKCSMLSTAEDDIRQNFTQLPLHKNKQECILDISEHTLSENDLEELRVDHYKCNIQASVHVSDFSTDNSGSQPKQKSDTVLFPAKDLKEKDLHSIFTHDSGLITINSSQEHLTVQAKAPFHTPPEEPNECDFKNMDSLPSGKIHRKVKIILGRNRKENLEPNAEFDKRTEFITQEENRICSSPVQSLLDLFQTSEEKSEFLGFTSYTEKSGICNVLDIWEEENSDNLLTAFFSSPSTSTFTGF
Test: Cdc7 biochemical assay Method 3: off-chip mobility shift assay (MSA) run at Carna Biosciences
Set-up: purchased Carna Biosciences; host or cells: baculovirus expression system
Settings: MCM2 peptide 1000 nM, ATP 5 μM, 5 hours, read-out: Biochemical method 3 (pIC50) (converted)
Structures can show the parent of a compound that is named as a salt.

- Compound: "O=c1[nH]c(-c2scnc2Cl)nc(N2CCNCC(F)C2)c1Cl (single isomer, unassigned) [Compound 72, hydrochloride]"
  IC50, nM: 3.8
- Compound: "C[C@@H]1COCCN1c1nc(-c2cn[nH]c2Cl)[nH]c(=O)c1Cl"
  IC50, nM: 3.8
- Compound: "C[C@@H]1CNCCN1c1nc(-c2ccnn2C)[nH]c(=O)c1Cl"
  IC50, nM: 43.7
- Compound: "O=c1[nH]c(-c2scnc2C(F)(F)F)nc(N2CCNCC(F)(F)C2)c1Cl"
  IC50, nM: 5.5
- Compound: "Cc1nccn1-c1nc(N2CCOC[C@H]2C)c(Cl)c(=O)[nH]1"
  IC50, nM: 44.7
- Compound: "O=c1[nH]c(-c2cn[nH]c2Cl)nc(N2CCNCC(F)(F)C2)c1Cl [Compound 40, hydrochloride]"
  IC50, nM: 3.72
- Compound: "Cc1nocc1-c1nc(N2CCNC[C@H]2C)c(Cl)c(=O)[nH]1"
  IC50, nM: 51.3
- Compound: "O=c1[nH]c(-c2scnc2Cl)nc(N2CCNCC2C(F)F)c1Cl (single isomer, unassigned) [Compound 69, hydrochloride]"
  IC50, nM: 3.39

---

Below, each of the compounds is paired with its reported EC50 value.
Target: Cdc7 (Homo sapiens, UniProt O00311)
Sequence (O00311 whole entry): as the sequence (O00311 whole entry) above
Sequence (Q9UBU7 whole entry partner): as the sequence (Q9UBU7 whole entry partner) above
Experiment: Cdc7 cell pharmacodynamics assay Method 2: pS40MCM2 levels in HCT116 cells
Format: cell-based
Parameters: endogenous in cells
Conditions: 18 hours treatment, read-out: Biomarker Method 2 (pEC50) (converted)
Assay endpoint: EC50

- Compound: "CC1(C)CNCCN1c1nc(-c2cn[nH]c2C(F)(F)F)[nH]c(=O)c1Cl [Compound 46]"
  Assay endpoint: "EC50"
  Test value: "151 nM"
- Compound: "C[C@@H]1CNCCN1c1nc(-c2cn[nH]c2C(F)(F)F)[nH]c(=O)c1Cl [Compound 44]"
  Assay endpoint: "EC50"
  Test value: "25.1 nM"
- Compound: "C[C@@H]1COCCN1c1nc(-c2c[nH]c3ncccc23)[nH]c(=O)c1Cl [Compound 53]"
  Assay endpoint: "EC50"
  Test value: "33.1 nM"
- Compound: "Cc1[nH]ncc1-c1nc(N2CCNC[C@H]2C)c(Cl)c(=O)[nH]1 [Compound 48]"
  Assay endpoint: "EC50"
  Test value: "457 nM"

---

Biological target: Cdc7 (Homo sapiens)
Experiment: Cdc7 cell pharmacodynamics assay Method 3: pS53MCM2 levels in SW48 cells
Assay type: cell-based
Set-up: endogenous in cells; host or cells: SW48
Details: 6 hours treatment, read-out: Biomarker Method 3 (pEC50) (converted)
Where a name gives a salt, the structure may show the parent alone.
Criterion met if EC50 is below 300 nM. Criterion not met if not; exact matches included in Criterion not met.

- Compound: "O=c1[nH]c(-c2cn[nH]c2C(F)(F)F)nc(N2CCNCC(F)(F)C2)c1Cl"
  Class assignment: "Criterion not met"
- Compound: "C[C@@H]1COCCN1c1nc(-c2c[nH]c3ncccc23)[nH]c(=O)c1Cl"
  Class assignment: "Criterion not met"
- Compound: "Cc1ncsc1-c1nc(C2CCOCC2)c(Cl)c(=O)[nH]1"
  Class assignment: "Criterion not met"
- Compound: "O=c1[nH]c(-c2cn[nH]c2C(F)(F)F)nc(N2CCOCC2)c1Cl"
  Class assignment: "Criterion not met"
- Compound: "C[C@@H]1COCCN1c1nc(-c2cn[nH]c2Cl)[nH]c(=O)c1Cl"
  Class assignment: "Criterion not met"
- Compound: "Cc1ncsc1-c1nc(N2CCNCC(F)C2)c(Cl)c(=O)[nH]1 (stereo not drawn)"
  Class assignment: "Criterion not met"
- Compound: "O=c1[nH]c(-c2scnc2C(F)(F)F)nc(C2CCOCC2)c1Cl"
  Class assignment: "Criterion not met"
- Compound: "C[C@@H]1CNCCN1c1nc(-c2scnc2Cl)[nH]c(=O)c1Cl [Compound 65, hydrochloride]"
  Class assignment: "Criterion met"
- Compound: "O=c1[nH]c(-c2scnc2Cl)nc(N2CCNCC2C(F)F)c1Cl (single isomer, unassigned) [Compound 69, hydrochloride]"
  Class assignment: "Criterion met"
- Compound: "O=c1[nH]c(-c2scnc2Cl)nc(N2CCNCC(F)(F)C2)c1Cl [Compound 66, hydrochloride]"
  Class assignment: "Criterion met"
- Compound: "C[C@@H]1CNCCN1c1nc(-c2cn[nH]c2C(F)(F)F)[nH]c(=O)c1Cl"
  Class assignment: "Criterion not met"
- Compound: "O=c1[nH]c(-c2cn[nH]c2Cl)nc(N2CCNCC(F)(F)C2)c1Cl [Compound 40, hydrochloride]"
  Class assignment: "Criterion met"
- Compound: "Cc1nocc1-c1nc(N2CCNC[C@H]2C)c(Cl)c(=O)[nH]1"
  Class assignment: "Criterion not met"
- Compound: "C[C@@H]1COCCN1c1nc(-c2cn[nH]c2C(F)(F)F)[nH]c(=O)c1Cl"
  Class assignment: "Criterion not met"
- Compound: "O=c1[nH]c(-c2scnc2Cl)nc(N2CCNCC(F)C2)c1Cl (racemic) [Compound 71, hydrochloride]"
  Class assignment: "Criterion met"
- Compound: "Cc1ncsc1-c1nc(N2CCN[C@@H](C(F)(F)F)C2)c(Cl)c(=O)[nH]1"
  Class assignment: "Criterion not met"
- Compound: "C[C@@H]1CNCCN1c1nc(-c2ccnn2C)[nH]c(=O)c1Cl"
  Class assignment: "Criterion not met"
- Compound: "O=c1[nH]c(-c2scnc2Cl)nc(C2CCOCC2)c1Cl"
  Class assignment: "Criterion not met"
- Compound: "O=c1[nH]c(-c2c[nH]c3ncccc23)nc(N2CCNCC(F)(F)C2)c1Cl"
  Class assignment: "Criterion not met"
- Compound: "Cc1ncsc1-c1nc(N2CCNCC2C(F)F)c(Cl)c(=O)[nH]1 (stereo not drawn)"
  Class assignment: "Criterion met"
- Compound: "O=c1[nH]c(-c2scnc2Cl)nc(N2CCNCC2C(F)(F)F)c1Cl (stereo not drawn)"
  Class assignment: "Criterion met"
- Compound: "C[C@@H]1CNCCN1c1nc(-c2cn[nH]c2Cl)[nH]c(=O)c1Cl"
  Class assignment: "Criterion not met"
- Compound: "O=c1[nH]c(-c2scnc2Cl)nc(N2CCNCC2C(F)F)c1Cl (single isomer, unassigned) [Compound 70, hydrochloride]"
  Class assignment: "Criterion not met"
- Compound: "C[C@@H]1COCCN1c1nc(-c2scnc2Cl)[nH]c(=O)c1Cl"
  Class assignment: "Criterion met"
- Compound: "O=c1[nH]c(-c2scnc2Cl)nc(N2CCNCC2C(F)F)c1Cl (stereo not drawn) [Compound 67]"
  Class assignment: "Criterion met"
- Compound: "O=c1[nH]c(-c2scnc2C(F)(F)F)nc(N2CCNCC(F)(F)C2)c1Cl"
  Class assignment: "Criterion not met"
- Compound: "Cc1nccn1-c1nc(N2CCOC[C@H]2C)c(Cl)c(=O)[nH]1"
  Class assignment: "Criterion not met"
- Compound: "Cc1ncsc1-c1nc(N2CCNCC(F)(F)C2)c(Cl)c(=O)[nH]1 [Compound 57, hydrochloride]"
  Class assignment: "Criterion not met"
- Compound: "O=c1[nH]c(-c2scnc2Cl)nc(N2CCNCC(F)C2)c1Cl (single isomer, unassigned) [Compound 73, hydrochloride]"
  Class assignment: "Criterion not met"
- Compound: "O=c1[nH]c(-c2scnc2Cl)nc(N2CCNCC(F)C2)c1Cl (single isomer, unassigned) [Compound 72, hydrochloride]"
  Class assignment: "Criterion met"
- Compound: "Cc1ncsc1-c1nc(N2CCOC[C@H]2C)c(Cl)c(=O)[nH]1"
  Class assignment: "Criterion not met"
- Compound: "Cc1ncsc1-c1nc(N2CCNCC2C(F)(F)F)c(Cl)c(=O)[nH]1 (stereo not drawn)"
  Class assignment: "Criterion not met"
- Compound: "Cc1ncsc1-c1nc(N2CCNC[C@H]2C)c(Cl)c(=O)[nH]1"
  Class assignment: "Criterion not met"
